TESTED_ON: T1, VEGFR-3-Fc (UniProt P35916 25-328)
T1 construct: domain: first three Ig domains; conditioned supernatant of 293T cells; also called VEGFR-3-Fc fusion protein; not shown: Fc fragment of the pIg vector
T1 sequence (looked up): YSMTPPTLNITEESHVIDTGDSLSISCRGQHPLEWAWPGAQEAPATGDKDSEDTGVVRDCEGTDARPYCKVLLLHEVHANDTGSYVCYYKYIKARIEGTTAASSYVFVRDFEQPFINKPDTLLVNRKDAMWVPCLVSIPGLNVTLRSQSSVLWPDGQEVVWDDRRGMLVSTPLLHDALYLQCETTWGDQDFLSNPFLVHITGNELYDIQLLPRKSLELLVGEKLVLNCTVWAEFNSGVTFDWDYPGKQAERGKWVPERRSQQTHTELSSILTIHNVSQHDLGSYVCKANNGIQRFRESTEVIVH
ASSAY_NOTES: receptor-Fc IP
From the text: The binding assay procedure was identical to the immunoprecipitation using pentahistidine antibody described in Example 2, apart from the composition of the immunoprecipitation (IP) mixes. […]
MEASUREMENT_NAME: binding result

72-15 (ligand) GQNHHEVVKSIDNEWRKTQCMPREVCIDVGKEFGVATNTFFKPPCVSVYRCGGCCNSEGLQCVPTEESNITMQIMRITVPLSQGPKPVTISFANHTSCRCMSKLD: no binding
21-4 (ligand) AHYNTEILKSIDNEWRKTQCMPREVCIDVGKEYPDEIEYIFKPSCVPLMRCGGCCNSEGLQCMNTSTSYLSKTLFEIKPHQGQHIGEMSFLQHNKCECRPKKD: no binding
52-9 (ligand) AHYNTEILKSIDNEWRKTQCMPIETLVDIFQEFGVATNTFFKPPCVSVYRCGGCCNDEGLECVPTEESNITMQIMRITVPLSQGPKPVTISFLQHNKCECRPKKD: binds
64-2 (ligand) GQNHHEVVKFMDVYQRSYCHPREVCIDVGKEFGVATNTFFKPSCVPLMRCGGCCNDEGLECMNTSTSYLSKTLFEIKPHQGQHIGEMSFLQHNKCECRPKKD: no binding
73-12 (ligand) GQNHHEVVKSIDNEWRKTQCMPREVCIDVGKEYPDEIEYIFKPPCVSVYRCGGCCNSEGLQCMNTSTSYLSKTLFEITVPLSQGPKPVTISFLQHNKCECRPKKD: no binding
42-3 (ligand) AHYNTEILKFMDVYQRSYCHPREVCIDVGKEFGVATNTFFKPPCVSVYRCGGCCNSEGLQCVPTEESNITMQIMRIKPHQGQHIGEMSFLQHNKCECRPKKD: no binding
72-10 (ligand) GQNHHEVVKSIDNEWRKTQCMPREVCIDVGKEFGVATNTFFKPPCVSVYRCGGCCNDEGLECMNTSTSYLSKTLFEITVPLSQGPKPVTISFLQHNKCECRPKKD: binds
83-13 (ligand) AHYNTEILKFMDVYQRSYCHPIETLVDIFQEYPDEIEYIFKPPCVSVYRCGGCCNDEGLECVPTEESNITMQIMRITVPLSQGPKPVTISFANHTSCRCMSKLD: no binding
